test system: OVCAR-4 ovarian; assay: NCI tumour cell line growth inhibition, 48 h
recorded_metric: TGI (µM)
One number for each entry, in µM.

CN(CCN)[C@H](CSSC[C@@H](c1ccccc1O)N(C)CCN)c1ccccc1O 34

Q: Give the measured TGI for CC(C)(C)N/N=C(/Cc1nc2c3c(ccc2[nH]c1=O)C(=O)c1ccccc1C3=O)C(=O)NC1=C(Cl)C(=O)c2ccccc2C1=O
Ans: 61.6

###

test system: LOX IMVI melanoma; test: NCI tumour cell line growth inhibition, 48 h
recorded_metric: TGI

Below, 4 compounds whose answers are already recorded.
O=C(O)CN1C(=O)c2ccc(NC(=O)C(=O)O)cc2S1(=O)=O > 100 µM
CC(=O)ON(OCc1ccc2ccccc2c1)C(C)=O > 100 µM
CCCN1C(=O)/C(=C/c2ccc(SC(F)(F)F)cc2)SC1=Nc1ccc(OC)cc1 > 50 µM
CC(C)(C)N/N=C(/Cc1nc2c3c(ccc2[nH]c1=O)C(=O)c1ccccc1C3=O)C(=O)NC1=C(Cl)C(=O)c2ccccc2C1=O > 100 µM

Now for a further compound.
Q: Give the measured TGI for O=c1c(-c2nc3ccccc3c3ccccc3c2=O)nc2ccccc2c2ccccc12
Ans: > 100 µM

###

test system: RXF-631 renal; test: NCI tumour cell line growth inhibition, 48 h
recorded_metric: TGI

Below, 2 molecules whose answers are already recorded.
molecule	TGI
CN1NC(c2ccc(Cl)cc2)=C(C#N)C(=O)CC1c1ccccc1 (stereo not given)	> 100 µM
CCOc1ccc(NC(=O)CC2SC(=Nc3ccc(C)cc3)NC2=O)cc1 (stereo not given)	> 100 µM

Batch lookup, TGI per entry.
1. CC1[C@@]2(CCC(C)(C)O2)O[C@@H]2C=C3C4CCC5Cc6nc7c(nc6C[C@@]5(C)C4C[C@H](O)[C@@]3(C)[C@]12O)CC1CCC2C3=C[C@H]4O[C@@]5(O[C@@](C)(CO)C[C@@H]5O)C(C)[C@@]4(O)[C@]3(C)[C@@H](O)CC2[C@]1(C)C7 (stereo not given in full)
2. C=CCNC(=S)NNC(=O)c1c(C)nc2sccn12
3. Cc1c(Cl)ccc2c1NC(=O)C2(O)CC(=O)c1ccc(Cl)cc1 (stereo not given)

Ans:
1. 0.213 µM
2. > 100 µM
3. > 100 µM

###

tested on: OVCAR-5 ovarian; experiment: NCI tumour cell line growth inhibition, 48 h
For each of the molecules below, state its TGI.

Below, 5 molecules whose answers are already recorded.
molecule	reported_measurement
CCCC(=O)Nc1cc(C(=O)N2C[C@H]3C[C@@]34C2=CC(=O)c2[nH]cc(C)c24)n(COC)c1	50 µM
Oc1c(Br)cc2c(c1Br)-c1c(c(O)c3c4c1=NCCC=4C=N3)NCC2	40.2 µM
COc1ccc(-c2nc3ccccc3c(=O)[nH]2)cc1	> 100 µM
CNC(=O)[C@H](Cc1ccccc1)NC(=O)N(CCC#N)CCN(C(=O)N[C@@H](Cc1ccccc1)C(=O)OC)c1ccccc1	> 100 µM
CC1CC(=O)N(N(C)C)C2(C#N)C(=O)N=C(N)C12C#N (stereo not given)	> 100 µM

Batch lookup, TGI per entry.
1. O=P(CN1CCOCC1)(c1ccccc1)c1ccccc1
2. CC[C@H](C)[C@H](NC(=O)C12C3C4C1C1C2C3C41NC)C(=O)N(C)[C@H](C[C@@H](OC(C)=O)c1nc(C(=O)N[C@@H](Cc2ccccc2)C[C@H](C)C(=O)OC)cs1)C(C)C (stereo not given in full)
3. NC1=Nc2cc(C(F)(F)F)ccc2Sc2nc3ccccc3n21
4. CN1NC(c2ccc(Cl)cc2)=C(C#N)C(=O)CC1c1ccccc1 (stereo not given)
5. CN(C)C(=O)C(F)(F)C(c1ccccc1Br)C1C(=O)N(C)C(=O)N(C)C1=O (stereo not given)

Ans:
1. > 100 µM
2. > 14.3 µM
3. > 100 µM
4. > 100 µM
5. > 100 µM

Ref: PubChem BioAssay (NCI)
